Tested on: Bowes
test_summary: drug sensitivity score (DSS) (DSS (unitless, 0-50 scale)); higher = more sensitive (stronger viability inhibition); extreme values may be limits of the assay
applied_conditions: 72 h; culture: 2D
Record form. Attribute: drug sensitivity score. Fill in for each entry.
Just the number, please.

Ask | Enter reported drug sensitivity score observed with Bowes for "CNC(=O)c1cc(COc2nnc(Nc3ccc(Cl)cc3)c3ccoc23)ccn1"
Reply | 0

Ask | Enter reported drug sensitivity score observed with Bowes for "CO[C@@H](C)Cn1c(=O)n(C)c2cnc3ccc(-c4cncc(C(C)(C)O)c4)cc3c21"
Reply | 10.4

Ask | Enter reported drug sensitivity score observed with Bowes for "C=CC(=O)Nc1cccc(Nc2nc(Nc3ccc(N4CCN(C(C)=O)CC4)cc3OC)ncc2C(F)(F)F)c1"
Reply | 7.7

Ask | Enter reported drug sensitivity score observed with Bowes for CC1(C)NC(=O)N(c2ccc([N+](=O)[O-])c(C(F)(F)F)c2)C1=O [Nilutamide]
Reply | 1.1

Ask | Enter reported drug sensitivity score observed with Bowes for "O=C(/C=C/c1cccc(S(=O)(=O)Nc2ccccc2)c1)NO"
Reply | 7.9

Ask | Enter reported drug sensitivity score observed with Bowes for "Cc1cc(C)c(CNC(=O)c2cc(-c3ccc(CN4CCOCC4)cc3)cc3c2cnn3C2CCCC2)c(=O)[nH]1"
Reply | 2.6

Ask | Enter reported drug sensitivity score observed with Bowes for "CC[C@@]1(O)C(=O)OCc2c1cc1n(c2=O)Cc2cc3c(CN(C)C)c(O)ccc3nc2-1"
Reply | 6.8

Ask | Enter reported drug sensitivity score observed with Bowes for CCCCNc1ncc(C(=O)NCc2ccc(-n3ccnc3)cc2)c(NC2CCC(O)CC2)n1 (centres undefined)
Reply | 0

Ask | Enter reported drug sensitivity score observed with Bowes for "CC(C)N(CCCNC(=O)Nc1ccc(C(C)(C)C)cc1)C[C@H]1O[C@@H](n2cc(Br)c3c(N)ncnc32)[C@H](O)[C@@H]1O"
Reply | 0
